TARGET_SYSTEM: recombinant human integrin αVβ6 (Homo sapiens, UniProt P06756+P18564)
Sequence (P06756 31-992 limits assumed): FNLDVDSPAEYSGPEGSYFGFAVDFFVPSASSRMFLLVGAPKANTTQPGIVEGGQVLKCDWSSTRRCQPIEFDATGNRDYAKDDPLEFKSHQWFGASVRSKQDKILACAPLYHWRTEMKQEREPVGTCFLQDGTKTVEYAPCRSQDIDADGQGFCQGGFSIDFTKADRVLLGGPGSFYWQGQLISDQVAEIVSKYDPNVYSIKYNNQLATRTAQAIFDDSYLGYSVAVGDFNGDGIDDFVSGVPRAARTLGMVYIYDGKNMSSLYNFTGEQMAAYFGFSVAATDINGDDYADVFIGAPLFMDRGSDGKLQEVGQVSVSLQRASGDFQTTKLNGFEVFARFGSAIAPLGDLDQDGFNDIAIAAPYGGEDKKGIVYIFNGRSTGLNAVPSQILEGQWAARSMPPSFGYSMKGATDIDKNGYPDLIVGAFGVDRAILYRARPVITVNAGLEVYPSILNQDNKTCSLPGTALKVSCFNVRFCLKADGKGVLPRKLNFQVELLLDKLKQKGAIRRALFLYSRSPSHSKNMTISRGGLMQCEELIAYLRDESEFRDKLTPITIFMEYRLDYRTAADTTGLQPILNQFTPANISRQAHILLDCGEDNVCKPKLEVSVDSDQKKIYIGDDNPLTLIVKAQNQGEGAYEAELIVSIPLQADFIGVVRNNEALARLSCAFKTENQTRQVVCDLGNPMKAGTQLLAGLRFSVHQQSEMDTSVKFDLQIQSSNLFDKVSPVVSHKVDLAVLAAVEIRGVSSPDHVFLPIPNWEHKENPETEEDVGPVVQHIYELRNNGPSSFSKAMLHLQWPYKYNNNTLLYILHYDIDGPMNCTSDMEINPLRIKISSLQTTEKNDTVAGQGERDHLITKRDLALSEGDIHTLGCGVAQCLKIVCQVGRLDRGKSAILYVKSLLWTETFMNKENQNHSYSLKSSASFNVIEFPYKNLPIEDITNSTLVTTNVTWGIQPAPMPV
Sequence (P18564 22-707 limits assumed): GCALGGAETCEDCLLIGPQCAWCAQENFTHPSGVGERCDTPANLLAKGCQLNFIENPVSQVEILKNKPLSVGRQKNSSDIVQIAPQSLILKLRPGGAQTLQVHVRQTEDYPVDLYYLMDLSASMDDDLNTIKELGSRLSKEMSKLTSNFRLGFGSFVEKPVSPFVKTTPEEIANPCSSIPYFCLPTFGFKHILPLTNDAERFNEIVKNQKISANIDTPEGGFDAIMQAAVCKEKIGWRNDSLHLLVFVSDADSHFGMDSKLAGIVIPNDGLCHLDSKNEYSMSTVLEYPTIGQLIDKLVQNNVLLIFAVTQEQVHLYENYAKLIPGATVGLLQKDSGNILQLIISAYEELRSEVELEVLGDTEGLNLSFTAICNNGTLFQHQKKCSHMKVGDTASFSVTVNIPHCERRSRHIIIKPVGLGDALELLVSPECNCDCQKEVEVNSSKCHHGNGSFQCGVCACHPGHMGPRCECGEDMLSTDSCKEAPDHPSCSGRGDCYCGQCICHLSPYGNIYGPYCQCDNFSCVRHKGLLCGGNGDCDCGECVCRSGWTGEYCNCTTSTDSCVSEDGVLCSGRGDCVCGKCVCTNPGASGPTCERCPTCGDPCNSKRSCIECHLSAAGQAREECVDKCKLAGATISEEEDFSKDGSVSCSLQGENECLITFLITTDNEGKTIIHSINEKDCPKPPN
PROTOCOL: Solid phase integrin αVβ6 binding assay
TEST_CONTEXT: TGFβ1 LAP, values presented in four ranges, read-out: αvβ6 Inhibition IC50 (nM)-range
READOUT_KIND: IC50

q: May I ask what IC50 has been recorded for COCCN(CCCCc1ccc2c(n1)NCCC2)CCC(Nc1ncnc2cnccc12)C(=O)O (stereo not shown) ?
a: < 50 nM

* * *

PROTOCOL: SAD and MAD first-in-human pharmacokinetic studies
Format: in vivo
TEST_CONTEXT: human, plasma, po, 75 mg, SAD study, 75 mg oral solution, healthy human subjects; read-out: AUC0-24
Method: Healthy human subjects (N=85) were selected for single ascending dose (SAD) and multiple ascending dose (MAD) first-in-human studies. […] Concentrations of Compound 5 were measured in the subjects by obtaining a sample of plasma from each subject at desired intervals, and subjecting the plasma to liquid chromatography-mass spectrometry-mass spectrometry (LC-MS/MS), with quantification using a calibration curve determined from a range of solutions at standardized concentrations. […]
READOUT_KIND: AUC(0-t) (ng·h/mL)
Reply numerically in ng·h/mL, unit not repeated.

q: # query: AUC(0-t) of entry COCCN(CCCCc1ccc2c(n1)NCCC2)CC[C@H](Nc1ncnc2ccccc12)C(=O)O [Compound 5]
a: 19700

* * *

PROTOCOL: pSMAD2:SMAD2 ratio in BAL and plasma Cmax in healthy subjects
Format: in vivo, human
TEST_CONTEXT: male, human, plasma, 40 mg/day, after the dose on Day 7, subjects of FIG. 8A-8F; read-out: Cmax (peak of the blood plasma concentration)
READOUT_KIND: Cmax

q: Recorded Cmax for COCCN(CCCCc1ccc2c(n1)NCCC2)CC[C@H](Nc1ncnc2ccccc12)C(=O)O , please?
a: > 900 ng/mL

* * *

PROTOCOL: αVβ6 target engagement by [18F]FP-R01-MG-F2 PET/CT in participants with IPF
Format: in vivo, human
TEST_CONTEXT: human, plasma; Subject C, 320 mg; read-out: Conc (Unbound Plasma Concentration)
READOUT_KIND: concentration at 4 h (nM)
Report the value in nM with no unit label.

q: // returns reported concentration at 4 h for input COCCN(CCCCc1ccc2c(n1)NCCC2)CC[C@H](Nc1ncnc2ccccc12)C(=O)O [Compound 5]
a: 98.5

* * *

PROTOCOL: SAD and MAD first-in-human pharmacokinetic studies
Format: in vivo
TEST_CONTEXT: plasma; SAD study, 75 mg oral solution, healthy human subjects
READOUT_KIND: Cmax (ng/mL)
State just the number; it will be interpreted in ng/mL.

q: What Cmax value was documented for this compound, COCCN(CCCCc1ccc2c(n1)NCCC2)CC[C@H](Nc1ncnc2ccccc12)C(=O)O ?
a: 1870

* * *

TARGET_SYSTEM: αVβ6 (Homo sapiens, UniProt P06756+P18564)
Construct: clinical trial evaluating αVβ6 receptor occupancy in the lungs
Sequence (P06756 31-1048): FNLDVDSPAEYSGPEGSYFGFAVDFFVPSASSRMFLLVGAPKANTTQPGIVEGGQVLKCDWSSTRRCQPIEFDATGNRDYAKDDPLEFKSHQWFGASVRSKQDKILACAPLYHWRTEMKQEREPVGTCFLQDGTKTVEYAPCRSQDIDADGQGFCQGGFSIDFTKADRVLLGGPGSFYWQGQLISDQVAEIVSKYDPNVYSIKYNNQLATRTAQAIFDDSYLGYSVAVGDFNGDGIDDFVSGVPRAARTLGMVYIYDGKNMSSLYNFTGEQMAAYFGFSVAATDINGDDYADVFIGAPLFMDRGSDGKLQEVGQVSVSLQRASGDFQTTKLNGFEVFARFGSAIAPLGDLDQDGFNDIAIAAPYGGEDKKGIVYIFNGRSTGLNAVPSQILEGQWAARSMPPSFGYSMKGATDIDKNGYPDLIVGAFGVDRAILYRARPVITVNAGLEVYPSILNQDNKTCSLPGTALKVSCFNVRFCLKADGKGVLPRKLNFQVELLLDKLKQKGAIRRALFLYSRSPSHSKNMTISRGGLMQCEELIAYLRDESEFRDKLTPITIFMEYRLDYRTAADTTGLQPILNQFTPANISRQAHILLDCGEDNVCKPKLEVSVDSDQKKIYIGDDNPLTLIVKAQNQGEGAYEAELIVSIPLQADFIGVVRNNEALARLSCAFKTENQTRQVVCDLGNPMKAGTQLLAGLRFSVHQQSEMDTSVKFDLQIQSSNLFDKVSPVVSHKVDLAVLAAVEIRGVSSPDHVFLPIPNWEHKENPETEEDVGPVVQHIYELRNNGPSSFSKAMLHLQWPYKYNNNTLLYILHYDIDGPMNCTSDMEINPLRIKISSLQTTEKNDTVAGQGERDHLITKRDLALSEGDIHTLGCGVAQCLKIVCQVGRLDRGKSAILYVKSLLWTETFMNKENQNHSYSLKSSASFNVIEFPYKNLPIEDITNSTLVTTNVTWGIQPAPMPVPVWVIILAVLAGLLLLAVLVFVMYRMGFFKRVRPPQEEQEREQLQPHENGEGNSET
Sequence (P18564 22-788): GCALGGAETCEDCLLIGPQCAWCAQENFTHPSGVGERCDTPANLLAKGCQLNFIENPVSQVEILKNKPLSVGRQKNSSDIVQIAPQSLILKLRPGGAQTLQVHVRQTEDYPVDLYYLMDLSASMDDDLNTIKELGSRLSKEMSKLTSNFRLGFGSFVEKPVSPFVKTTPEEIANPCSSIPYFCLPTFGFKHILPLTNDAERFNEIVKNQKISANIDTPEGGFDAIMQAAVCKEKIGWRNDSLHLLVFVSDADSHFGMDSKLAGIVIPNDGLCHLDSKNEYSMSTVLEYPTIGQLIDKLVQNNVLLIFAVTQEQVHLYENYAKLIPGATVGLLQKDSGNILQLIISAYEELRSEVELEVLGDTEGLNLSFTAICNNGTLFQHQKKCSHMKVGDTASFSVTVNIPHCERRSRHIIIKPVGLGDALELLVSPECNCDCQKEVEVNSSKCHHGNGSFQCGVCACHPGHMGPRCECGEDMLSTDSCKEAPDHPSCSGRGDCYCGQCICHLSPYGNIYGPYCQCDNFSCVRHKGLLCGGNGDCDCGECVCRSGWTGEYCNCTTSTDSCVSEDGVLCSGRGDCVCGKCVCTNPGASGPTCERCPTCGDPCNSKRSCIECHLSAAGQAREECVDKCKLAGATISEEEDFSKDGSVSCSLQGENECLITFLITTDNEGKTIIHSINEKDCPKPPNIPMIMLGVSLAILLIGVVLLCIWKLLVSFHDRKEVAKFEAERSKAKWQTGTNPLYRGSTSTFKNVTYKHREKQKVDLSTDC
PROTOCOL: αVβ6 target engagement by [18F]FP-R01-MG-F2 PET/CT in participants with IPF
TEST_CONTEXT: unbound plasma concentration vs % target engagement, 4-parameter non-linear regression (FIG. 10); read-out: best-fit EC50
READOUT_KIND: pEC50
A value of pEC50 is the negative decimal logarithm of a concentration given in moles per litre.

q: Look up pEC50: COCCN(CCCCc1ccc2c(n1)NCCC2)CC[C@H](Nc1ncnc2ccccc12)C(=O)O
a: 8.53
